Where do the numbers come from? From patent US20240383875A1.

The following compounds each carry a recorded pIC50 for SIK3 (Homo sapiens, UniProt Q9Y2K2).
pIC50 is defined as minus the log10 of a concentration measured in mol/L.

// query pIC50 value for entry Cc1ccc(Nc2cc3ncn(-c4ccc(C(C)O)c(-c5cn(CC(F)(F)F)nc5C)n4)c3cc2F)nn1 (stereo not drawn)
8.96

Repeat with Cc1ccc(Oc2ccc3c(c2)ncn3-c2ccc(C(C)O)c(-n3nc(C#N)cc3C)n2)nn1 (stereo not drawn)
8.20

Repeat with Cc1cc(C(=O)N(C)C)c(Nc2ccc3c(c2)ncn3-c2ccc(C(C)O)c(-n3nc(C#N)cc3C)n2)nn1 (stereo not drawn)
8.38

Repeat with Cc1cc(C#N)nn1-c1nc(-n2cnc3cc(NC(=O)C4CC4)ccc32)ccc1C(C)O (stereo not drawn)
8.39

Repeat with "Cc1ccc(Nc2cc3ncn(-c4ccc([C@H](C)O)c(-n5nc(C#N)cc5C)n4)c3cc2OC(F)F)nn1"
9.52

Repeat with Cc1ccc(Nc2ccc3c(c2)ncn3-c2ccc(C(C)O)c(-c3cn(CC4CCC4)nc3C)n2)nn1 (stereo not drawn)
8.96

Repeat with Cc1ccc(Nc2cc3c(cc2F)ncn3-c2ccc(C(C)O)c(-n3nc(Cl)cc3C)n2)nn1 (stereo not drawn)
7.12

Repeat with Cc1ccc(Nc2cc3ncn(-c4ccc(C(C)O)c(-n5nc(OC(F)F)cc5C)n4)c3cc2OC2COC2)nn1 (stereo not drawn)
8.77

Repeat with "COc1cc2c(cc1Nc1cnc(C)nc1)ncn2-c1ccc([C@H](C)O)c(-n2nc(OC(F)F)cc2C)n1"
8.11

Repeat with Cc1ccc(Nc2ccc3c(c2)ncn3-c2ccc(C(C)O)c(-c3cn(CC(F)CF)nc3C)n2)nn1 (stereo not drawn)
9.00

Repeat with COc1ccc(Nc2ccc3c(c2)ncn3-c2ccc(C(C)O)c(-n3nc(C#N)cc3C)n2)nn1 (stereo not drawn)
9.10

Repeat with Cc1ccc(Nc2ccc3c(c2)ncn3-c2ccc(C(C)O)c(-n3nc(C#N)c(C)c3C)n2)nn1 (stereo not drawn)
9.40

Repeat with "Cc1ccc(Nc2cc3ncn(-c4ccc(CO)c(-n5nc(C#N)cc5C)n4)c3cc2F)nn1"
8.41

Repeat with Cc1ccc(Nc2ccc3ncn(-c4ccc(C(C)O)c(N5CC[C@@H]6NCC[C@H]65)n4)c3c2)nn1 (stereo partly drawn)
6.05

Repeat with Cc1ccc(Nc2ccc3ncn(-c4ccc(C(C)O)c(N5CC[C@H]6NCC[C@@H]65)n4)c3c2)nn1 (stereo partly drawn)
6.64

###

# tested-system: SIK1 (Homo sapiens)
# Sequence (P57059 whole entry): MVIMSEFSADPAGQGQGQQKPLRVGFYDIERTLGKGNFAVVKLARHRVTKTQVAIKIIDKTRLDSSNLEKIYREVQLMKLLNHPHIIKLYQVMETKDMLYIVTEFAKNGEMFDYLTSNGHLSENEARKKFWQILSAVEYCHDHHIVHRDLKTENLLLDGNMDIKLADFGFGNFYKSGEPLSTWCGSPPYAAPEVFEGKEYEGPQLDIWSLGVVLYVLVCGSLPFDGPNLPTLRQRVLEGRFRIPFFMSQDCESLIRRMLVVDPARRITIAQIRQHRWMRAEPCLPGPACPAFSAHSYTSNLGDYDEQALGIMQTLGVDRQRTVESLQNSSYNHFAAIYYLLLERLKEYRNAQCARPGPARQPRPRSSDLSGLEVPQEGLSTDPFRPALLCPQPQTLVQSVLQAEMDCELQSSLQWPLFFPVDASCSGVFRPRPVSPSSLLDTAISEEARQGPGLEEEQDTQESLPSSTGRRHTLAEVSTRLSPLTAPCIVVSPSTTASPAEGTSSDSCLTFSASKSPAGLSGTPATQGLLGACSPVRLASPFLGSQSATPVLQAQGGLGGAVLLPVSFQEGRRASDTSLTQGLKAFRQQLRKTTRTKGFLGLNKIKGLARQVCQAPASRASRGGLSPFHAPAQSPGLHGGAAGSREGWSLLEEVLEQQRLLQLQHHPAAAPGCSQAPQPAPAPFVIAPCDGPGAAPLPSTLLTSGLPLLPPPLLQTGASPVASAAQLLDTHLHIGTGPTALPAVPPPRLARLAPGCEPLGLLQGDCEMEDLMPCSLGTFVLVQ
Flag rule - IC50 less than 600 nM flags Condition met; the remaining entries get Condition not met.

Is 600 nM strictly greater than the molecule's reported IC50? molecule: Cc1ccc(Nc2ccc3c(c2)ncn3-c2ccc(C(C)O)c(N3CC(C(F)F)C4(CC4)C3)n2)nn1 (stereo not drawn) [Example 325]
Condition not met

Repeat with Cc1ccc(Nc2cc3c(cc2OCCN2CCOCC2)ncn3-c2ccc(C(C)O)c(-n3nc(C#N)cc3C)n2)cn1 (stereo not drawn) [Example 294]
Condition met

Repeat with Cc1ccc(Nc2ccc3c(c2)ncn3-c2ccc(C(C)O)c(-n3nc(C(F)(F)F)c4c3CCN(C3COC3)C4)n2)nn1 (stereo not drawn) [Example 177]
Condition met

Repeat with Cc1ccc(Nc2ccc3c(c2)ncn3-c2ccc(C(C)O)c(-n3nc(C(F)F)cc3C)n2)nn1 (stereo not drawn) [Example 129, formic acid]
Condition met

Repeat with Cc1ccc(Nc2ccc3ncn(-c4ccc([C@H](C)O)c(-n5nc(C#N)cc5C)n4)c3c2)nn1 [Example 280]
Condition met

Repeat with Cc1ccc(Nc2cc3ncn(-c4ccc(C(C)O)c(-c5cc(OC(F)F)ncc5C)n4)c3cc2F)nn1 (stereo not drawn) [Example 346]
Condition met

Repeat with Cc1ccc(Nc2ccc3c(c2)ncn3-c2ccc(C(C)O)c(-n3nc(S(C)(=O)=O)cc3C)n2)nn1 (stereo not drawn) [Example 145]
Condition met

Repeat with COc1cc2c(cc1Nc1cnc(C)nc1)ncn2-c1ccc([C@H](C)O)c(-n2nc(OC(F)F)cc2C)n1 [Example 400]
Condition met

Repeat with COc1cc2ncn(-c3ccc(CO)c(-c4cccc(Cl)c4F)n3)c2cc1OC [Example 15]
Condition met

Repeat with Cc1ccc(Nc2cc3ncn(-c4ccc(C(C)O)c(-n5nc(C#N)cc5C)n4)c3cc2C(F)(F)F)nn1 (stereo not drawn) [Example 275]
Condition not met

Repeat with COc1cc2ncn(-c3ccc(CO)c(-c4ccc(F)cc4OC)n3)c2cc1OC [Example 16]
Condition not met

Repeat with Cc1ccc(Nc2ccc3c(c2)ncn3-c2ccc(C(C)O)c(C(=O)NCC(F)(F)F)n2)nn1 (stereo not drawn) [Example 124, formic acid]
Condition not met

Repeat with Cc1cc(C#N)nn1-c1nc(-n2cnc3ccc(CN4CCCC4=O)cc32)ccc1C(C)O (stereo not drawn) [Example 212]
Condition met

Repeat with Cc1ccc(Nc2ccc3c(c2)ncn3-c2ccc(C(C)O)c(-c3nnn(CC(F)(F)F)c3C)n2)nn1 (stereo not drawn) [Example 311]
Condition met

Repeat with Cc1ccc(Nc2ccc3c(c2)ncn3-c2ccc(C(C)O)c(-c3cn(CC4CC4)nc3C)n2)nn1 (stereo not drawn) [Example 266, formic acid]
Condition met

Repeat with CCc1cc(-c2nc(-n3cnc4cc(Nc5ccc(C)nn5)ccc43)ccc2C(C)O)c(C)cn1 (stereo not drawn) [Example 283]
Condition not met

Repeat with COc1cc2c(cc1Nc1cc3c(nn1)CCOC3)ncn2-c1ccc(C(C)O)c(-n2nc(C#N)cc2C)n1 (stereo not drawn) [Example 394]
Condition met

Repeat with Cc1cc(C(=O)N(C)C)c(Nc2cc3ncn(-c4ccc([C@H](C)O)c(-n5nc(C(F)F)cc5C)n4)c3cc2F)nn1 [Example 345]
Condition not met

Repeat with Cc1cc(C#N)nn1-c1nc(-n2cnc3cc(N4CCN(C)CC4)ccc32)ccc1C(C)O (stereo not drawn) [Example 65]
Condition not met

Repeat with Cc1cc(C(F)F)nn1-c1nc(-n2cnc3cc(Nc4ccc(C5(C)OCCO5)nn4)c(F)cc32)ccc1C(C)O (stereo not drawn) [Example 337]
Condition not met

Repeat with Cc1cc(C#N)nn1-c1nc(-n2cnc3cc(F)c(Nc4ccc(F)c(F)c4F)cc32)ccc1C(C)O (stereo not drawn) [Example 379]
Condition met

Repeat with Cc1cc(C#N)nn1-c1nc(-n2cnc3cc(C#N)ccc32)ccc1C(C)O (stereo not drawn) [Example 263]
Condition met

Repeat with Cc1ccc(Nc2ccc3c(c2)ncn3-c2nc(-n3ccc(C#N)n3)c(C(C)O)cc2Cl)nn1 (stereo not drawn) [Example 239]
Condition not met

Repeat with Cc1ccc(Nc2ccc3c(c2)ncn3-c2ccc(C(C)O)c(OC3CNCC3(F)F)n2)nn1 (stereo not drawn) [Example 393]
Condition not met

Repeat with COCCn1cc(-c2nc(-n3cnc4cc(Nc5ccc(C)nn5)ccc43)ccc2C(C)O)c(C)n1 (stereo not drawn) [Example 265, formic acid]
Condition met

Repeat with Cc1cc(C(F)F)nn1-c1nc(-n2cnc3cc(Nc4cccnn4)c(F)cc32)ccc1[C@H](C)O [Example 307]
Condition not met

Repeat with Cc1cc(C#N)nn1-c1nc(-n2cnc3cc(NC4CC(=O)N(C)C4)ccc32)ccc1C(C)O (stereo not drawn) [Example 161]
Condition met

Repeat with Cc1ccc(Nc2ccc3c(c2)ncn3-c2ccc(C(C)O)c(-n3ncc(C#N)n3)n2)nn1 (stereo not drawn) [Example 256]
Condition not met

Repeat with Cc1cc(C#N)nn1-c1nc(-n2cnc3ccc(CN4CCCCC4=O)cc32)ccc1C(C)O (stereo not drawn) [Example 215]
Condition met

Repeat with Cc1ccc(Nc2ccc3c(c2)ncn3-c2ccc(C(C)O)c(-n3nc(C(F)(F)F)c4c3CCNC4)n2)nn1 (stereo not drawn) [Example 97]
Condition met
